The reported numbers originate from ChEMBL document CHEMBL2331496.

Test system: Human immunodeficiency virus 1
Experiment: Antiviral activity against HIV1 NL4.3 infected in 293T cells assessed as acentric core at 5 ug/ml after 2 days by electron microscopic analysis
Type: functional, organism-based
Activity calls are given as the source filed them. The rule behind the calls is not given here.
Respond using exactly one of the listed classes: active, inactive

>  <compound>
C=C(C)[C@@H]1CC[C@]2(C(=O)NCC(=O)O)CC[C@]3(C)[C@H](CC[C@@H]4[C@@]5(C)CC[C@H](OC(=O)CC(C)(C)C(=O)O)C(C)(C)[C@@H]5CC[C@]43C)[C@@H]12

>  <target-desc>
Human immunodeficiency virus 1

>  <class-assignment>
active

$$$$
>  <compound>
C=C(C)[C@@H]1CC[C@]2(C(=O)NCCN)CC[C@]3(C)[C@H](CC[C@@H]4[C@@]5(C)CC[C@H](OC(=O)CC(C)(C)C(=O)O)C(C)(C)[C@@H]5CC[C@]43C)[C@@H]12

>  <target-desc>
Human immunodeficiency virus 1

>  <class-assignment>
active

$$$$
>  <compound>
C=C(C)[C@@H]1CC[C@]2(C(=O)N[C@@H](CCCCNC(=O)OC(C)(C)C)C(=O)O)CC[C@]3(C)[C@H](CC[C@@H]4[C@@]5(C)CC[C@H](OC(=O)CC(C)(C)C(=O)O)C(C)(C)[C@@H]5CC[C@]43C)[C@@H]12

>  <target-desc>
Human immunodeficiency virus 1

>  <class-assignment>
active

$$$$

Look up the recorded call for `C=C(C)[C@@H]1CC[C@]2(C(=O)N[C@@H](CCCCN)C(=O)O)CC[C@]3(C)[C@H](CC[C@@H]4[C@@]5(C)CC[C@H](OC(=O)CC(C)(C)C(=O)O)C(C)(C)[C@@H]5CC[C@]43C)[C@@H]12` in this test.
inactive

Look up the recorded call for C=C(C)[C@@H]1CC[C@]2(C(=O)O)CC[C@]3(C)[C@H](CC[C@@H]4[C@@]5(C)CC[C@H](O)C(C)(C)[C@@H]5CC[C@]43C)[C@@H]12 [BETULINIC ACID] in this test.
inactive

Look up the recorded call for `C=C(C)[C@@H]1CC[C@]2(C(=O)NCCC(=O)O)CC[C@]3(C)[C@H](CC[C@@H]4[C@@]5(C)CC[C@H](OC(=O)CC(C)(C)C(=O)O)C(C)(C)[C@@H]5CC[C@]43C)[C@@H]12` in this test.
active

Look up the recorded call for C=C(C)[C@@H]1CC[C@]2(C(=O)O)CC[C@]3(C)[C@H](CC[C@@H]4[C@@]5(C)CC[C@H](OC(=O)CC(C)(C)C(=O)O)C(C)(C)[C@@H]5CC[C@]43C)[C@@H]12 [BEVIRIMAT] in this test.
active

====

Test system: Human immunodeficiency virus 1
Test: Antiviral activity against HIV1 NL4.3 infected in 293T cells assessed as spherical core at 5 ug/ml after 2 days by electron microscopic analysis
Format: functional, organism-based
Active and inactive are the calls of the source. No cut-off for these calls is given here.
Respond using exactly one of the listed classes: active, inactive

>  <molecular-string>
C=C(C)[C@@H]1CC[C@]2(C(=O)N[C@@H](CCCCNC(=O)OC(C)(C)C)C(=O)O)CC[C@]3(C)[C@H](CC[C@@H]4[C@@]5(C)CC[C@H](OC(=O)CC(C)(C)C(=O)O)C(C)(C)[C@@H]5CC[C@]43C)[C@@H]12

>  <class-assignment>
active

$$$$
>  <molecular-string>
C=C(C)[C@@H]1CC[C@]2(C(=O)NCC(=O)O)CC[C@]3(C)[C@H](CC[C@@H]4[C@@]5(C)CC[C@H](OC(=O)CC(C)(C)C(=O)O)C(C)(C)[C@@H]5CC[C@]43C)[C@@H]12

>  <class-assignment>
active

$$$$
>  <molecular-string>
C=C(C)[C@@H]1CC[C@]2(C(=O)N[C@@H](CCCCN)C(=O)O)CC[C@]3(C)[C@H](CC[C@@H]4[C@@]5(C)CC[C@H](OC(=O)CC(C)(C)C(=O)O)C(C)(C)[C@@H]5CC[C@]43C)[C@@H]12

>  <class-assignment>
inactive

$$$$

Look up the recorded call for `C=C(C)[C@@H]1CC[C@]2(C(=O)NCCC(=O)O)CC[C@]3(C)[C@H](CC[C@@H]4[C@@]5(C)CC[C@H](OC(=O)CC(C)(C)C(=O)O)C(C)(C)[C@@H]5CC[C@]43C)[C@@H]12` in this test.
active

====

Item-by-item account of CC50 at 48 h
Assay: Cytotoxicity against human MAGIC-5B cells after 48 hrs by MTT assay
Format: cell-based
Expressed in µM, but write only the number.

Here's what some known entries look like.
>  <molecular-string>
C=C(C)[C@@H]1CC[C@]2(C(=O)O)CC[C@]3(C)[C@H](CC[C@@H]4[C@@]5(C)CC[C@H](O)C(C)(C)[C@@H]5CC[C@]43C)[C@@H]12

>  <unit>
µM

>  <CC50 at 48 h>
4.52

$$$$
>  <molecular-string>
C=C(C)[C@@H]1CC[C@]2(C(=O)N[C@@H](CCCCN)C(=O)O)CC[C@]3(C)[C@H](CC[C@@H]4[C@@]5(C)CC[C@H](OC(=O)CC(C)(C)C(=O)O)C(C)(C)[C@@H]5CC[C@]43C)[C@@H]12

>  <unit>
µM

>  <CC50 at 48 h>
48.7

$$$$
>  <molecular-string>
C=C(C)[C@@H]1CC[C@]2(C(=O)NCCN)CC[C@]3(C)[C@H](CC[C@@H]4[C@@]5(C)CC[C@H](OC(=O)CC(C)(C)C(=O)O)C(C)(C)[C@@H]5CC[C@]43C)[C@@H]12

>  <unit>
µM

>  <CC50 at 48 h>
33.9

$$$$
>  <molecular-string>
C=C(C)[C@@H]1CC[C@]2(C(=O)N[C@@H](CCCCNC(=O)OC(C)(C)C)C(=O)O)CC[C@]3(C)[C@H](CC[C@@H]4[C@@]5(C)CC[C@H](OC(=O)CC(C)(C)C(=O)O)C(C)(C)[C@@H]5CC[C@]43C)[C@@H]12

>  <unit>
µM

>  <CC50 at 48 h>
33.9

$$$$
>  <molecular-string>
C=C(C)[C@@H]1CC[C@]2(C(=O)NCCC(=O)O)CC[C@]3(C)[C@H](CC[C@@H]4[C@@]5(C)CC[C@H](OC(=O)CC(C)(C)C(=O)O)C(C)(C)[C@@H]5CC[C@]43C)[C@@H]12

>  <unit>
µM

>  <CC50 at 48 h>
48.5

$$$$

Now consider a different compound.
// CC50 at 48 h lookup, key: `C=C(C)[C@@H]1CC[C@]2(C(=O)NCC(=O)O)CC[C@]3(C)[C@H](CC[C@@H]4[C@@]5(C)CC[C@H](OC(=O)CC(C)(C)C(=O)O)C(C)(C)[C@@H]5CC[C@]43C)[C@@H]12`
49.5

====

Tested on: Human immunodeficiency virus 1
Assay: Antiviral activity against HIV1 NL4.3 infected in 293T cells assessed as spherical core at 5 ug/ml after 2 days by electron microscopic analysis
Format: functional, organism-based
Active and inactive are the calls of the source. The calls are words filed in the database; no cut-off is given here.
readout-name: Activity

>  <molecular-string>
C=C(C)[C@@H]1CC[C@]2(C(=O)NCCN)CC[C@]3(C)[C@H](CC[C@@H]4[C@@]5(C)CC[C@H](OC(=O)CC(C)(C)C(=O)O)C(C)(C)[C@@H]5CC[C@]43C)[C@@H]12

>  <target-desc>
Human immunodeficiency virus 1

>  <reported-measurement>
Active

$$$$
>  <molecular-string>
C=C(C)[C@@H]1CC[C@]2(C(=O)O)CC[C@]3(C)[C@H](CC[C@@H]4[C@@]5(C)CC[C@H](OC(=O)CC(C)(C)C(=O)O)C(C)(C)[C@@H]5CC[C@]43C)[C@@H]12

>  <target-desc>
Human immunodeficiency virus 1

>  <reported-measurement>
Active

$$$$
